tested system: Human immunodeficiency virus type 1 reverse transcriptase (Human immunodeficiency virus 1, UniProt Q72547)
pIC50: −log10 of the molar value.

# chemical string, inequality operator, pIC50
rows = [
    ("C=CC(=O)N(C)CCOc1ccc(Cl)c(Oc2cccn3cc(C#N)cc23)c1", "=", 7.15),
    ("C=CC(=O)N(C)CCc1ccc(Cl)c(Oc2cc(Cl)cc(C#N)c2)c1", "=", 6.30),
    ("CN(CCc1ccc(Cl)c(Oc2cc(Cl)cc(C#N)c2)c1)C(=O)CCl", "=", 5.36),
    ("C=CS(=O)(=O)CCOc1ccc(Cl)c(Oc2cc(Cl)cc(C#N)c2)c1", "=", 5.10),
    ("CN(C)C(=O)CCOc1ccccc1Oc1cccn2cc(C#N)cc12", "=", 7.70),
    ("C=CC(=O)NCCOc1cc(Cl)ccc1Oc1cc(Cl)cc(C#N)c1", "=", 4.22),
    ("C=CC(=O)NCCOc1ccc(Cl)c(Oc2cc(Cl)cc(C#N)c2)c1", "=", 5.96),
    ("C=CC(=O)Nc1cccc(COc2cc(Cl)ccc2Oc2cc(Cl)cc(C#N)c2)c1", "=", 6.05),
    ("C=CC(=O)N(C)CCOc1cc(Cl)ccc1Oc1cc(Cl)cc(C#N)c1", "=", 7.22),
    ("N#Cc1cc(Cl)cc(Oc2cc(OCCNC(=O)CCl)ccc2Cl)c1", "=", 5.56),
    ("C=CC(=O)N(C)CCOc1ccccc1Oc1cccc2cc(C#N)ccc12", ">", 8.00),
]

Value source: ChEMBL document CHEMBL5634149
